# System: 276233-004-R-J1-PDC complex spheroid viability;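 note: spheroids exposed to drugs for seven days; 100% = DMSO vehicle control viability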
# METHOD: Anticancer human tumor 276233-004-R-J1-PDC patient-derived colon adenocarcinoma cell line growth inhibition [GQUAD]
# TEST CONTEXT: second compound 3.16 µM; first compound 0.316 µM; stronger effect = lower value
# viability, T/C per record follows
VALUE KIND: viability, T/C (%)

| MOLECULE | NUMERIC READOUT |
| --- | --- |
| COc1ncnc(C2CC2)c1-c1ncc2cnn(Cc3ccc(-c4nc(C(F)(F)F)cn4C(C)C)cc3)c2n1 + Cc1cnc(CNC(=O)c2c(=O)c3ccc(N4CCCN(C)CC4)nc3n3c2sc2ccccc23)cn1 | 80.5 |
| O=c1[nH]cc(F)c(=O)[nH]1 + Cc1cnc(CNC(=O)c2c(=O)c3ccc(N4CCCN(C)CC4)nc3n3c2sc2ccccc23)cn1 | 79.2 |
| CC(C)(O)C1CCC(Nc2ccc3ncc(-c4cccc(C(F)(F)F)c4)n3n2)CC1 (stereo not given) + CN(C)c1ccc(Nc2c3ccc(NC(=O)CCN4CCCC4)cc3nc3cc(NC(=O)CCN4CCCC4)ccc23)cc1 | 51.3 |
| Cc1[nH]c2ccccc2c1CCNCc1ccc(/C=C/C(=O)NO)cc1 + CN(C)c1ccc(Nc2c3ccc(NC(=O)CCN4CCCC4)cc3nc3cc(NC(=O)CCN4CCCC4)ccc23)cc1 | 8.05 |
| CCCS(=O)(=O)Nc1ccc(F)c(C(=O)c2c[nH]c3ncc(-c4ccc(Cl)cc4)cc23)c1F + Cc1[nH]c2ccc(F)cc2c1-c1nc2c3cccnc3c3ncccc3c2[nH]1 | 27.3 |
